experiment: CHI Log D procedure; format: physicochemical; settings: pH 7.4
The reader will find reported CHI Log D values listed item by item below.
Write the value as a bare number.

Example compounds with recorded CHI Log D:
>  <Compound>
CC[C@H](C)[C@@H]1NC(=O)[C@H](CC(=O)O)NC(=O)[C@]2(CC=CCCCC3(CCCC=CCCCCCC[C@@](C)(C(=O)N[C@@H](Cc4ccccc4)C(=O)N[C@@H](Cc4csc5ccccc45)C(=O)N[C@@H](CCC(N)=O)C(N)=O)NC(=O)[C@H](CCC(N)=O)NC(=O)[C@H](Cc4ccccc4)NC(=O)[C@H](C)NC(=O)[C@H](C)NC(=O)[C@H](CCC(=O)O)NC(=O)[C@H](CC(=O)O)NC3=O)NC1=O)CCCN2S(C)(=O)=O (stereo partly shown) [I-711]

>  <Meas value>
2.132

$$$$
>  <Compound>
CC(=O)N1CCC[C@]12CC=CCCCC1(CCCC=CCCCOC(=O)N3CC[C@@](C(=O)N[C@@H](Cc4ccccc4Cl)C(=O)N[C@@H](Cc4csc5ccccc45)C(=O)N[C@@H](CCC(N)=O)C(N)=O)(C3)NC(=O)[C@H](CC(C)C)NC(=O)[C@H](Cc3ccccc3)NC(=O)[C@H](C)NC(=O)[C@H](C)NC(=O)[C@H](CCC(=O)O)NC(=O)[C@H](CC(=O)O)NC1=O)NC(=O)[C@H](CC1CCCCC1)NC(=O)[C@H](CC(=O)O)NC2=O (stereo partly shown) [I-1078]

>  <Meas value>
2.162

$$$$
>  <Compound>
CC(=O)N1CCC[C@]12CC=CCCCC1(CCCC=CCCCCCC[C@@](C)(C(=O)N[C@@H](Cc3ccccc3)C(=O)N[C@@H](Cc3c[nH]c4ccccc34)C(=O)N[C@@H](CCC(N)=O)C(N)=O)NC(=O)[C@H](C(C)C)NC(=O)[C@H](Cc3ccc(N)cc3)NC(=O)[C@H](C)NC(=O)[C@H](C)NC(=O)[C@H](CC(=O)O)NC(=O)[C@H](CC(=O)O)NC1=O)NC(=O)[C@H](C)NC(=O)[C@H](CC(=O)O)NC2=O (stereo partly shown) [I-323]

>  <Meas value>
1.953

$$$$
>  <Compound>
CC(=O)N1CCC[C@]12CC=CCCCC1(CCCC=CCCCCCC[C@@](C)(C(=O)N[C@@H](Cc3ccccc3)C(=O)N[C@@H](Cc3csc4ccccc34)C(N)=O)NC(=O)[C@H](CC(N)=O)NC(=O)[C@H](Cc3ccccc3)NC(=O)[C@H](C)NC(=O)[C@H](C)NC(=O)[C@H](CCC(=O)O)NC(=O)[C@H](CC(=O)O)NC1=O)NC(=O)[C@H](CC(C)(C)C)NC(=O)[C@H](CC(=O)O)NC2=O (stereo partly shown) [I-713]

>  <Meas value>
2.851

$$$$
>  <Compound>
CC[C@H](C)[C@@H]1NC(=O)[C@H](CC(=O)O)NC(=O)[C@]2(CC=CCCCC3(CCCC=CCCCCCC[C@@](C)(C(=O)N[C@@H](Cc4ccccc4)C(=O)N[C@@H](Cc4csc5ccccc45)C(=O)N[C@@H](CCC(N)=O)C(N)=O)NC(=O)[C@H](CCC(N)=O)NC(=O)[C@H](Cc4ccccc4)NC(=O)[C@H](C)NC(=O)[C@H](CCC(N)=O)NC(=O)[C@H](CCC(=O)O)NC(=O)[C@H](CC(=O)O)NC3=O)NC1=O)CCCN2C(C)=O (stereo partly shown) [I-653]

>  <Meas value>
2.07

$$$$
>  <Compound>
CCCC[C@@H]1NC(=O)[C@H](CCC(=O)O)NC(=O)[C@H](CC(=O)O)NC(=O)C2(CCCC=CCCCCCC[C@@](C)(C(=O)N[C@@H](Cc3ccccc3)C(=O)N[C@@H](Cc3csc4ccccc34)C(=O)N[C@@H](CCC(N)=O)C(N)=O)NC(=O)[C@H](CCC(N)=O)NC(=O)[C@H](Cc3ccccc3)NC(=O)[C@H](C)NC1=O)CCCC=CC[C@]1(CCCN1C(C)=O)C(=O)N[C@@H](CC(=O)O)C(=O)N[C@@H]([C@@H](C)CC)C(=O)N2 (stereo partly shown) [I-656]

>  <Meas value>
2.736

$$$$
>  <Compound>
CC(=O)N[C@@H](Cc1ccccc1)C(=O)N[C@@H](CC(=O)O)C(=O)N[C@@H](C)C(=O)N[C@]1(C)CCCCCCC=CCOC(=O)N2CC[C@@](C(=O)N[C@@H](Cc3ccccc3)C(=O)N[C@@H](Cc3c[nH]c4ccccc34)C(=O)N[C@@H](CCC(N)=O)C(N)=O)(C2)NC(=O)[C@H]([C@@H](C)O)NC(=O)[C@H](Cc2ccccc2)NC(=O)[C@H](C)NC(=O)[C@H](C)NC(=O)[C@H](CC(=O)O)NC(=O)[C@H](CC(=O)O)NC1=O [I-221]

>  <Meas value>
1.34

$$$$
>  <Compound>
CC(=O)N1CCC[C@]12CC=CCCCC1(CCCC=CCCCCCC[C@@](C)(C(=O)N[C@@H](Cc3cccc(Cl)c3)C(=O)N[C@@H](Cc3c[nH]c4ccccc34)C(=O)N[C@@H](CCC(N)=O)C(N)=O)NC(=O)[C@H](C(C)C)NC(=O)[C@H](Cc3ccccc3)NC(=O)[C@H](C)NC(=O)[C@H](C)NC(=O)[C@H](CC(=O)O)NC(=O)[C@H](CC(=O)O)NC1=O)NC(=O)[C@H](C)NC(=O)[C@H](CC(=O)O)NC2=O (stereo partly shown) [I-310]

>  <Meas value>
2.188

$$$$
>  <Compound>
CC[C@H](C)[C@H](NC(=O)[C@H](CC(=O)O)NC(C)=O)C(=O)N[C@]1(C)CCN(C)C(=O)OCC=CCCCCC[C@@](C)(C(=O)N[C@@H](Cc2ccccc2)C(=O)N[C@@H](Cc2c[nH]c3ccccc23)C(=O)N[C@@H](Cc2c[nH]cn2)C(N)=O)NC(=O)[C@H](CCC(N)=O)NC(=O)[C@H](Cc2ccccc2)NC(=O)[C@H](C)NC(=O)[C@H](C)NC(=O)[C@H](CC(=O)O)NC(=O)[C@H](CC(=O)O)NC1=O [I-150]

>  <Meas value>
1.297

$$$$

As a next step, examine the compound that follows.
The compound identified as CC[C@H](C)[C@@H]1NC(=O)[C@H](CC(=O)O)NC(=O)[C@]2(CC=CCCCC3(CCCC=CCCCCCC[C@@](C)(C(=O)N[C@@H](Cc4ccccc4)C(=O)N[C@@H](Cc4c[nH]c5ccccc45)C(=O)N[C@@H](Cc4c[nH]cn4)C(N)=O)NC(=O)[C@H](CCC(N)=O)NC(=O)[C@H](Cc4ccccc4)NC(=O)[C@H](C)NC(=O)[C@H](C)NC(=O)[C@H](CC(=O)O)NC(=O)[C@H](CC(=O)O)NC3=O)NC1=O)CCCN2C(C)=O (stereo partly shown) registered its CHI Log D at 2.242

// provenance: patent US20240116985A1
